- SYSTEM NAME: Neu5Ac(a2-3)Gal(b1-3)GlcNAc(b1-3)GalNAc
- EXPERIMENT NOTES: glycan array binding signal (z-score within array); higher = stronger binding
- TEST PARAMETERS: glycan notation: IUPAC condensed, linker removed
About 410 targets per protein were measured; listed, in parts, are those with the strongest signals and a random draw of the rest.
Measured glycan array binding signal (z-score) by item
Please give the numeric answer without any surrounding text.

Consider the worked cases shown below.
>  <BINDER>
Thrombomodulin (Mus musculus) (protein) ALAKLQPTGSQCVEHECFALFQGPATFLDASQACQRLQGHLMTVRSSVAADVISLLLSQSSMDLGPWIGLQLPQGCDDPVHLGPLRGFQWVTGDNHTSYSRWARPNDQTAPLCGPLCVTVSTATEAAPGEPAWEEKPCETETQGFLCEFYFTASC

>  <glycan array binding signal (z-score)>
-0.354

$$$$
>  <BINDER>
OrysaEULS2 (Oryza sativa) (protein) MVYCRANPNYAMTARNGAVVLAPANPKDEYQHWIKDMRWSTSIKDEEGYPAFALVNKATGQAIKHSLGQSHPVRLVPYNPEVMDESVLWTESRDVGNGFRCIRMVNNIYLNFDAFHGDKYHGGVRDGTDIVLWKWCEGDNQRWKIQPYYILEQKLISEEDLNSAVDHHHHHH

>  <glycan array binding signal (z-score)>
-0.195

$$$$

The value of glycan array binding signal (z-score) measured for the binder FGF1 (Homo sapiens), P05230 (protein) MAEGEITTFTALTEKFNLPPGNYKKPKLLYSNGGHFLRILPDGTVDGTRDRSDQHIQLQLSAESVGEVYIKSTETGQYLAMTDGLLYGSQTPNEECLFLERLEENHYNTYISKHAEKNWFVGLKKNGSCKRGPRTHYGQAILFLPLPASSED turned out to be -0.187

Just for reference, the supplement of paper PMC8728848 is where these values come from.
